- Test system: MS2 coat protein
- assay_text: apparent KD of MS2 coat protein; designed switch direction (-1 OFF switch, 1 ON switch): -1; higher = weaker reporter binding
- condition_info: input ligand: FMN 200 uM
test_readout: apparent KD of MS2 coat protein (nM)
Output spec: scalar in nM, unitless text.

Example sequences with recorded apparent KD of MS2 coat protein:
ACAUGAGGAUCACCCAUGUCCGUCUGGUCUGUCUCGGCUGUCGAGGAUAUAGCCCGGUAUCCGCGCUAGAAGGCGGGAGUCGGC [Aenatbe mod 97] (Eterna round: R96, puzzle: Exclusion NG 3) = 23.1
UGCCAGCGAGGAUAUGCUAGAGGUGUUCCGUGCUCUAAGGGACAUGAGGAUCACCCAUGUAGAAGGCGCACGUC [Eternabot (L1) Solution 20] (Eterna round: R97, puzzle: Exclusion 2) = 187

Problem: Give apparent KD of MS2 coat protein (MS2 coat protein) of the following sequence: AAGCUGUGAGGAUAUACAUGAGGAUCACCCAUGUUAAGGAAGUCGGGAUUAAUUUGGUGUAGAAGGCGCUUAUU [JR_Ex3_Sub019] (Eterna round: R97, puzzle: Exclusion 3)
Result: 46.1
